Target: DNA gyrase (Escherichia coli, UniProt P0AES4+P0AES6)
Test: Inhibition of Escherichia coli DNA gyrase(A2B2 tetramer) preincubated for 5 mins followed by ATP addition and measured once per minute for 20 to 30 minutes by ATPase assay
measurement name: IC50 (µM)
I only need the number, in µM, no unit after it.

Test system DNA gyrase (Escherichia coli, UniProt P0AES4+P0AES6); read-out IC50; what value for `CCNC(=O)Nc1cc(-n2cc(Br)cn2)c(C(=O)Nc2cccnc2)cn1` ?
0.037

Test system DNA gyrase (Escherichia coli, UniProt P0AES4+P0AES6); read-out IC50; what value for CCNC(=O)Nc1cc(N2CCC(N)C2)c(C(=O)Nc2cccnc2)cn1 (stereo not drawn) ?
0.089

Test system DNA gyrase (Escherichia coli, UniProt P0AES4+P0AES6); read-out IC50; what value for `CCNC(=O)Nc1cc(-n2nccn2)c(C(=O)Nc2cccnc2)cn1` ?
0.15
